// provenance: PubChem BioAssay (Tox21)

Experimental Protocol: A CellTox Green Cytotoxicity Assay to monitor cytotoxicity in HepG2 cells - 40 hour (AID 1224879); also: % is scaled to controls: 0 for no effect and ±100 for the full control effect; nearly all actives have a fitted effect of over 40% in size
Condition Notes: CellTox Green fluorescence; series mostly up to 76.8 µM
From the text: National Center for Advancing Translational Sciences [NCATS] NIH Chemical Genomics Center [NCGC] U.S. Environmental Protection Agency [EPA] National Institutes of Environmental Health Sciences [NIEHS] National Toxicology Program [NTP] Cell-based models are critical for drug discovery. […] Viable cells produce no appreciable increases in fluorescence. Therefore, the fluorescence signal produced by the binding interaction with dead cell DNA is proportional to cytotoxicity. […]
Results filed as inconclusive are left out. Activity calls are given as the source filed them. Calls follow the shape of the dose curve; as a rule, active = well fitted activation curve with a large enough effect in the repeat runs; inconclusive = weak or mixed curves; inactive = flat fitted curve, though single readings scatter.
Recorded Endpoint: cytotoxicity increase

CN(C)CCOCCO | inactive
CC(C)NCC(O)COc1cccc2[nH]ccc12 (stereo not drawn) | inactive
Oc1cn2c(n1)Nc1ccc(Cl)c(Cl)c1C2 | -8.09% [at 15.8 µM] (inactive)
O=C(NCC(O)CO)c1c(I)c(C(=O)NCC(O)CO)c(I)c(N(CCO)C(=O)CO)c1I (stereo not drawn) | inactive
CC1=C(C(=O)O)N2C(=O)[C@@H](NC(=O)[C@H](N)c3ccc(O)cc3)[C@H]2SC1 | inactive

Prompt line: Using the record for C#CC(C)N(C)C(=O)Nc1ccc(Cl)cc1 (stereo not drawn) , report its cytotoxicity increase.
Response line: inactive

Prompt line: Using the record for CC(=O)c1sc(C)nc1C , report its cytotoxicity increase.
Response line: inactive

Prompt line: Using the record for FC(F)(F)c1ccccc1-n1ccnc1 , report its cytotoxicity increase.
Response line: inactive

Prompt line: Using the record for Cc1ccccc1OCC(O)CO (stereo not drawn) , report its cytotoxicity increase.
Response line: inactive

Prompt line: Using the record for O=C(/N=N/C(=O)OCc1ccccc1)OCc1ccccc1 , report its cytotoxicity increase.
Response line: inactive

Prompt line: Using the record for COC(=O)C1CC(=O)C(C(=O)OC)CC1=O (stereo not drawn) , report its cytotoxicity increase.
Response line: -13.2% [at 6.97 µM] (inactive)

Prompt line: Using the record for Nc1ccc(S(=O)(=O)Nc2ccc(Cl)nn2)cc1 , report its cytotoxicity increase.
Response line: inactive

Prompt line: Using the record for CCCOC(=O)C(C)O (stereo not drawn) , report its cytotoxicity increase.
Response line: inactive
